The following compounds each carry a recorded pIC50 for UniProtKB Q9H3R0.
Sequence (Q9H3R0 whole entry): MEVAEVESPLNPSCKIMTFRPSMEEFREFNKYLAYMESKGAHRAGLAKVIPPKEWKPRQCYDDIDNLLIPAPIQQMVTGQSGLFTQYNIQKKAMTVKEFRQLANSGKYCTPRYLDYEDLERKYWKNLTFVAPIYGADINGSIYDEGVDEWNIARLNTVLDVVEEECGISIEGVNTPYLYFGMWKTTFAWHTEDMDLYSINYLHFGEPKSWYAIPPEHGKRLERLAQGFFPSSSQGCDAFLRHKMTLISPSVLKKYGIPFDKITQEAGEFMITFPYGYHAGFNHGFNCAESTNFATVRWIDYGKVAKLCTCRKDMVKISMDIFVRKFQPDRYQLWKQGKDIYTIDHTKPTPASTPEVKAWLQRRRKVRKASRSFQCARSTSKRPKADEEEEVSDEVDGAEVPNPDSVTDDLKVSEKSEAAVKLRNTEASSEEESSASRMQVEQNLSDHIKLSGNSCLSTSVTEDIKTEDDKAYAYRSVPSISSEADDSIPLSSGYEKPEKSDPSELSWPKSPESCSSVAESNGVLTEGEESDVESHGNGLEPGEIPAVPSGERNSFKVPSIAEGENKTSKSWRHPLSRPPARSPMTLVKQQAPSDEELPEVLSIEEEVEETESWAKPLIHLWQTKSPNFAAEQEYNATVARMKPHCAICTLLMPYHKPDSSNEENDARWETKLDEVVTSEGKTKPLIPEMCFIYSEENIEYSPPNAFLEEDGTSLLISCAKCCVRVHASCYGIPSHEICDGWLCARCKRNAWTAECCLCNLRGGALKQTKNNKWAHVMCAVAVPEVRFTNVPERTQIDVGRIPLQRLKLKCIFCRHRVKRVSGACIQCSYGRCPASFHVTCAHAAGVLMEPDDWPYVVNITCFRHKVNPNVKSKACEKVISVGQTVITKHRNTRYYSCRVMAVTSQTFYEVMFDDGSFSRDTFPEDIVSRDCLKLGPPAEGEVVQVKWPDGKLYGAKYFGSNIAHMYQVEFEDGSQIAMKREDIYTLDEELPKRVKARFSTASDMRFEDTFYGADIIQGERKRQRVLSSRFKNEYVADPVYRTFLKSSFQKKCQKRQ
pIC50: −log10 of the molar value.

# Compound, pIC50
records = [
    ("C=CC(=O)N1CCC(n2cc(-c3[nH]c4c(C#N)cnn4c(=O)c3C(C)C)cn2)CC1 [Compound 10]", 5.40),
    ("CC(C)c1c(-c2cnn(C3CCN(C(=O)CCl)CC3)c2)[nH]c2c(C#N)cnn2c1=O [Compound 11]", 5.82),
    ("C=CC(=O)Nc1cccc(CN(C)CCc2cnn(-c3nccc4c(=O)[nH]cnc34)c2)c1 [Compound 4]", 6.00),
]

* * *

# Study target: KDM5B (NanoLuc-KDM5B) (Homo sapiens)
# Sequence (Q9UGL1 whole entry): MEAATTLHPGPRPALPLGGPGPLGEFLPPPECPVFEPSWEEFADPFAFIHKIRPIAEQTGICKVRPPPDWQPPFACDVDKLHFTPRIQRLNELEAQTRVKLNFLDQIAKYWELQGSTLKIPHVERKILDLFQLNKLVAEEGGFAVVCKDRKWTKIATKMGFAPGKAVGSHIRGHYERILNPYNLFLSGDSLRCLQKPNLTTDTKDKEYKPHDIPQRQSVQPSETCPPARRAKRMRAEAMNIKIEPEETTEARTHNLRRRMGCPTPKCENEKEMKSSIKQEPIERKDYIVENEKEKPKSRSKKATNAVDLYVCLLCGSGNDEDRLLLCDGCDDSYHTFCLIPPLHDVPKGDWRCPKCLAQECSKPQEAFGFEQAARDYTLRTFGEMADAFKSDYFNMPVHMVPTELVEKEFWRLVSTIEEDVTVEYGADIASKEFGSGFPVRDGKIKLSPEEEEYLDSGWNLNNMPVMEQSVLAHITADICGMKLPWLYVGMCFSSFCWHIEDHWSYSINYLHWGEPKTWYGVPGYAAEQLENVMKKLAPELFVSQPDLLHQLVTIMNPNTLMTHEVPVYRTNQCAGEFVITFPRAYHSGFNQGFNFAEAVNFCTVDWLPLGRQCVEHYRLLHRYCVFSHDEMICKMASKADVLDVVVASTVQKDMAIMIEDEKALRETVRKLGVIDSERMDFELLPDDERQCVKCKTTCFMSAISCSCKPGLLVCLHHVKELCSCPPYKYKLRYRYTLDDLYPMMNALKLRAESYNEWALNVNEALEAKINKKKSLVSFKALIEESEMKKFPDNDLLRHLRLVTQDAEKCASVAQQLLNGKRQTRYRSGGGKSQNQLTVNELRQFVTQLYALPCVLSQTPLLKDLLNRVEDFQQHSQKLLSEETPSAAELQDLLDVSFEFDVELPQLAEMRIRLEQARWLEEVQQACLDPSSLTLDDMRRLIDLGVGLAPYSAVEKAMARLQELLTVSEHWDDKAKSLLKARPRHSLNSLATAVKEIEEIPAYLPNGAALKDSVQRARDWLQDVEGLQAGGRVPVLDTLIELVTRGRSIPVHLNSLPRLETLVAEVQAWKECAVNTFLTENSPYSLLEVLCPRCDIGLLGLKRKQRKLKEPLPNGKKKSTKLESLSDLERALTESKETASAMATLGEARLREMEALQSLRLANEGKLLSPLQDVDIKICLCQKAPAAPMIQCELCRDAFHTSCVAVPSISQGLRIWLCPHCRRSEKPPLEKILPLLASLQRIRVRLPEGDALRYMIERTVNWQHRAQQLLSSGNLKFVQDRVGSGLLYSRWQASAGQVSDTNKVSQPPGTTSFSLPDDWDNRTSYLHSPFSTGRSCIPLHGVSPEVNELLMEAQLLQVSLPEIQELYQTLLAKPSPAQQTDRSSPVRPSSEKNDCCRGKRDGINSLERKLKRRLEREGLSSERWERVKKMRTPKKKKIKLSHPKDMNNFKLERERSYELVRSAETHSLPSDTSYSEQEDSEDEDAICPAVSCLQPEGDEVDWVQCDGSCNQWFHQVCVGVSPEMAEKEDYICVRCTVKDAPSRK
# Procedure details: NanoBRET cellular target engagement assay in HEK293 cells
pIC50: −log10 of the molar value.
Readout name: pIC50

# Compound, Censoring qualifier, Readout value
measured = [
    ("C=CC(=O)NCCOc1ccc(-c2[nH]c3c(C#N)cnn3c(=O)c2C(C)C)cc1 [Compound 9]", "=", 6.52),
    ("CC(C)c1c(-c2ccccc2)[nH]c2c(C#N)cnn2c1=O [CPI‐455]", "=", 6.40),
    ("CN(CCc1cnn(-c2nccc3c(=O)[nH]cnc23)c1)Cc1cccc(NC(=O)CCl)c1 [Compound 5]", "<", 4.52),
    ("CC(C)c1c(-c2cnn(C3CCN(C(=O)CCl)CC3)c2)[nH]c2c(C#N)cnn2c1=O [Compound 11]", "=", 5.07),
]
